# Tested on: Hepatitis C virus
# PROCEDURE_TEXT: Antiviral activity against Hepatitis C virus genotype 1a harboring NS5A Y93H mutant
# Type: functional, organism-based, Hepacivirus hominis
QUANTITY_MEASURED: pEC50
Reminder that pEC50 is minus the log10 of a molar concentration.

Report pEC50 from Hepatitis C virus testing of COC(=O)N[C@H](C(=O)N1CCC[C@H]1c1nc(-c2ccc3c(c2)O[C@@H](c2ccccc2)n2c-3cc3cc(-c4c[nH]c([C@@H]5CCCN5C(=O)[C@@H](NC(=O)OC)C(C)C)n4)ccc32)c[nH]1)C(C)C
8.62

Report pEC50 from Hepatitis C virus testing of COC(=O)N[C@H](C(=O)N1CCC[C@H]1c1ncc(-c2ccc(-c3cc4cc(-c5cnc([C@@H]6CCCN6C(=O)[C@@H](NC(=O)OC)C(C)C)[nH]5)ccc4o3)cc2)[nH]1)C(C)C
7.57

Report pEC50 from Hepatitis C virus testing of COC(=O)N[C@H](C(=O)N1CCC[C@H]1c1ncc(-c2ccc3c(c2)OCn2c-3cc3cc(-c4cnc([C@@H]5CCCN5C(=O)[C@@H](NC(=O)OC)C(C)C)[nH]4)ccc32)[nH]1)C(C)C
8.30

Report pEC50 from Hepatitis C virus testing of COC(=O)N[C@H](C(=O)N1CCC[C@H]1c1ncc(-c2cc(F)c3c(c2)O[C@@H](c2cnc(C4CC4)s2)n2c-3cc3cc(-c4cnc([C@@H]5CCCN5C(=O)[C@@H](NC(=O)OC)C(C)C)[nH]4)ccc32)[nH]1)C(C)C
10.22

Report pEC50 from Hepatitis C virus testing of COC(=O)N[C@H](C(=O)N1CCC[C@H]1c1ncc(-c2ccc3c(c2)CCn2c-3cc3cc(-c4cnc([C@@H]5CCCN5C(=O)[C@@H](NC(=O)OC)C(C)C)[nH]4)ccc32)[nH]1)C(C)C
6.77

###

# PROCEDURE_TEXT: Stability in human plasma assessed as drug degradation measured after 44 hrs
# Format: ADME, cell-free
# CONDITION_SET: read-out: Drug degradation
Numbered stars: 1 amine (or outer) side, 2 acyl side, 3 side chain; on linkers, the order of the positions; unused ones are H or OH. Bridge positions count the residues as written; N and C are the ends. Square brackets hold non-standard residues; d marks the D form. Peptide text beside a SMILES is read from it. * marks the point of attachment. Orn(4R-OH,5R-OCH2CH2NMe3+) = C[N+](C)(C)CCO[C@@H](N[*:3])[C@H](O)C[C@H](N[*:1])C(=O)[*:2]; pTerphenylCO(4''-OnC5H11) = CCCCCOc1ccc(-c2ccc(-c3ccc(C(=O)*)cc3)cc2)cc1; hTyr(3S-OH,4S-OH) = N[C@H](C(=O)O)[C@H](O)[C@@H](O)c1ccc(O)cc1; Pro(3S-OH,4S-Me) = C[C@H]1CN[C@H](C(=O)O)[C@H]1O; Hyp = O=C(O)[C@@H]1C[C@@H](O)CN1
QUANTITY_MEASURED: metabolised at 44 h

// Input: CCCCCOc1ccc(-c2ccc(-c3ccc(C(=O)N[C@H]4C[C@@H](O)[C@@H](OCC[N+](C)(C)C)NC(=O)[C@@H]5[C@@H](O)[C@@H](C)CN5C(=O)[C@H]([C@@H](C)O)NC(=O)[C@H]([C@H](O)[C@@H](O)c5ccc(O)cc5)NC(=O)[C@@H]5C[C@@H](O)CN5C(=O)[C@H]([C@@H](C)O)NC4=O)cc3)cc2)cc1 [REZAFUNGIN] ({pTerphenylCO(4''-OnC5H11)}-[Orn(4R-OH,5R-OCH2CH2NMe3+)]T[Hyp][hTyr(3S-OH,4S-OH)]T[Pro(3S-OH,4S-Me)]; lactam 1-C) . Output its metabolised at 44 h only.
7%

###

Provide the reported bioavailability of each item.
# PROCEDURE_TEXT: Bioavailability in rat at 0.5 mg/kg, iv measured after 30 mins by LC-MS/MS analysis
# Assay type: ADME, organism-based
# CONDITION_SET: in vivo
Express your answer in %, writing the number without its unit.

// Input: O=C(NCc1c(F)cc(F)cc1F)c1cn2c(c(O)c1=O)C(=O)N1[C@H]3CC[C@H](C3)O[C@@H]1C2 . Output its bioavailability only.
50

// Input: C[C@@H]1CCO[C@H]2Cn3cc(C(=O)NCc4ccc(F)cc4F)c(=O)c(O)c3C(=O)N12 . Output its bioavailability only.
52

###

# PROCEDURE_TEXT: Stability of the compound in 1M HCL buffer assessed as drug degradation by measuring rate constant by FRET-based assay
# Type: physicochemical
QUANTITY_MEASURED: K

// Input: COc1cc(/N=N/c2ccc([N+](=O)[O-])cc2)c(OC)cc1/N=N/c1ccc(N(C)CCCC(=O)NCCSC2CC(=O)N(CC3OCC(C(=O)NCCCNC(=O)c4ccc(C(=O)[O-])c(-c5c6ccc(=[N+](C)C)cc-6oc6cc(N(C)C)ccc56)c4)CO3)C2=O)cc1 (stereo not given) . Output its K only.
3.8 10^-7/s

// Input: COc1cc(/N=N/c2ccc([N+](=O)[O-])cc2)c(OC)cc1/N=N/c1ccc(N(C)CCCC(=O)NCCSC2CC(=O)N(CC3CCC(C(=O)NCCCNC(=O)c4ccc(C(=O)[O-])c(-c5c6ccc(=[N+](C)C)cc-6oc6cc(N(C)C)ccc56)c4)CC3)C2=O)cc1 (stereo not given) . Output its K only.
3.06 10^-7/s

// Input: COc1cc(/N=N/c2ccc([N+](=O)[O-])cc2)c(OC)cc1/N=N/c1ccc(N(C)CCCC(=O)NCCSC2CC(=O)N(CCC3OCC(C(=O)NCCCNC(=O)c4ccc(-c5c6ccc(=[N+](C)C)cc-6oc6cc(N(C)C)ccc56)c(C(=O)[O-])c4)O3)C2=O)cc1 (stereo not given) . Output its K only.
4.61 10^-6/s

// Input: COc1cc(/N=N/c2ccc([N+](=O)[O-])cc2)c(OC)cc1/N=N/c1ccc(N(C)CCCC(=O)NCCSC2CC(=O)N(CCC3OCC(C(=O)NCCCNC(=O)c4ccc(-c5c6ccc(=[N+](C)C)cc-6oc6cc(N(C)C)ccc56)c(C(=O)[O-])c4)CO3)C2=O)cc1 (stereo not given) . Output its K only.
2.28 10^-6/s

// Input: COc1cc(/N=N/c2ccc([N+](=O)[O-])cc2)c(OC)cc1/N=N/c1ccc(N(C)CCCC(=O)NCCSC2CC(=O)N(CC3OCC(C(=O)NCCCNC(=O)c4ccc(C(=O)[O-])c(-c5c6ccc(=[N+](C)C)cc-6oc6cc(N(C)C)ccc56)c4)O3)C2=O)cc1 (stereo not given) . Output its K only.
1.59 10^-6/s

###

# PROCEDURE_TEXT: Aqueous stability of the compound at pH 7 assessed as half-life
# Format: physicochemical
# CONDITION_SET: aqueous solution
QUANTITY_MEASURED: half-life

// Input: CC1(C)S[C@@H]2[C@H](NC(=O)[C@H](N)c3ccccc3)C(=O)N2[C@H]1C(=O)O [AMPICILLIN] . Output its half-life only.
15 min

###

# PROCEDURE_TEXT: Stability in rat plasma assessed as drug degradation measured after 44 hrs
# Assay type: ADME, cell-free
# CONDITION_SET: read-out: Drug degradation
Numbered stars: 1 amine (or outer) side, 2 acyl side, 3 side chain; on linkers, the order of the positions; unused ones are H or OH. Bridge positions count the residues as written; N and C are the ends. Square brackets hold non-standard residues; d marks the D form. Peptide text beside a SMILES is read from it. * marks the point of attachment. Orn(4R-OH,5R-OCH2CH2NMe3+) = C[N+](C)(C)CCO[C@@H](N[*:3])[C@H](O)C[C@H](N[*:1])C(=O)[*:2]; pTerphenylCO(4''-OnC5H11) = CCCCCOc1ccc(-c2ccc(-c3ccc(C(=O)*)cc3)cc2)cc1; hTyr(3S-OH,4S-OH) = N[C@H](C(=O)O)[C@H](O)[C@@H](O)c1ccc(O)cc1; Pro(3S-OH,4S-Me) = C[C@H]1CN[C@H](C(=O)O)[C@H]1O; Hyp = O=C(O)[C@@H]1C[C@@H](O)CN1
QUANTITY_MEASURED: metabolised at 44 h (%)
Express your answer in %, writing the number without its unit.

// Input: CCCCCOc1ccc(-c2ccc(-c3ccc(C(=O)N[C@H]4C[C@@H](O)[C@@H](OCC[N+](C)(C)C)NC(=O)[C@@H]5[C@@H](O)[C@@H](C)CN5C(=O)[C@H]([C@@H](C)O)NC(=O)[C@H]([C@H](O)[C@@H](O)c5ccc(O)cc5)NC(=O)[C@@H]5C[C@@H](O)CN5C(=O)[C@H]([C@@H](C)O)NC4=O)cc3)cc2)cc1 [REZAFUNGIN] ({pTerphenylCO(4''-OnC5H11)}-[Orn(4R-OH,5R-OCH2CH2NMe3+)]T[Hyp][hTyr(3S-OH,4S-OH)]T[Pro(3S-OH,4S-Me)]; lactam 1-C) . Output its metabolised at 44 h only.
9

Origin of the recorded values: ChEMBL document CHEMBL5244275
